// reported melting point per item

QUERY: Would you kindly share the measured melting point for Cc1ccc2c(c1)C=Cc1cc(C)ccc1C2c1cn(Cc2nc(C(=O)Nc3nc(CC(=O)O)cs3)cs2)c(=O)[nH]c1=S ?
RESULT: 200 to 205 °C

QUERY: Fill in the blank: the reported melting point of N=C(NS(=O)(=O)C=Cc1ccc([N+](=O)[O-])cc1)c1cccc([N+](=O)[O-])c1 is ____.
RESULT: 230 to 232 °C

----------
# maps each entry to its melting point

Recorded results for 5 compounds are shown here.
QUERY: Any idea what its melting point is? The compound is Cc1ccc(S(=O)(=O)n2ccnc2C(O)(c2ccc(F)cc2)c2ccc(F)cc2)cc1
RESULT: 149 to 151 °C

QUERY: Could you share which melting point value was measured for CC(C)(C)c1cc(CSCCC(=O)ON(Cc2ccccc2)Cc2ccccc2)cc(C(C)(C)C)c1O ?
RESULT: 84 to 86 °C

QUERY: # lookup: melting point of CCn1cc(C(=O)O)c(=O)c2cc(F)c(N3CCN(C(=O)OC(OC(=O)c4ccccc4)C(=O)OC(C)C)CC3)cc21 (stereo not given)
RESULT: 135 to 143 °C

QUERY: Form field: reported melting point of COc1ccc2cc(C=NCc3ccccc3)ccc2c1
RESULT: 115 to 117 °C

QUERY: # input compound: C[C@H]1[C@H](c2ccccc2)OC(c2cccc(Br)c2)N1C (stereo not given in full) ; wanted: its melting point
RESULT: 73 to 75 °C

Next:
QUERY: Recorded melting point for CC(C)CCCC(C)C1CCC2C3CC=C4CC(NCCCNC(=O)CCCCCNc5ccc([N+](=O)[O-])c6nonc56)CCC4(C)C3CCC12C (stereo not given) , please?
RESULT: 78 to 80 °C

QUERY: Entry CCCCCS(=O)(=O)NC(=O)CCc1ccc(OCCOC)cc1OCC1CCCO1 (stereo not given) has what melting point?
RESULT: 57.8 to 58.9 °C
